method.notes: 384-well plate pilot, post-Golgi transport modulator project, inhibition of yeast transport mutant growth (AID 636); note: test concentration not given here
condition.description: absorbance 615 nm, about 18 h, stronger effect = higher value
property: inhibition (%)

compound: CCOC(=O)c1c(C)oc2c1c(C=NCc1ccccn1)c(O)c1ccccc12
units.symbol: %
measured.result: -8.38

compound: Cc1ccc(F)cc1NC(=O)C1CCCN(c2ncccn2)C1 (configuration not stated)
units.symbol: %
measured.result: -6.8

compound: CCOC(=O)c1sc(NC(=O)c2c(C)nn(Cc3ccccc3)c2C)cc1C
units.symbol: %
measured.result: -10

compound: CC1CCCCN1CCNS(=O)(=O)c1ccc2c(c1)oc(=O)n2C (configuration not stated)
units.symbol: %
measured.result: -6.13

compound: COc1ccccc1NC(=O)CSc1nnc(-c2ccncc2)o1
units.symbol: %
measured.result: 0.91

compound: N#CC1=C(N)C(C#N)(C#N)[C@H](c2ccsc2)[C@H]2COCC=C12
units.symbol: %
measured.result: -6.03

compound: O=S(=O)(Nn1cnnc1)c1ccccc1Cl
units.symbol: %
measured.result: 4

compound: CC(C)c1nnc(NC(=O)CCC(=O)NCc2ccc3c(c2)OCO3)s1
units.symbol: %
measured.result: -5.2

compound: Cc1cc(C(=O)Nc2c(F)cc(F)cc2Br)no1
units.symbol: %
measured.result: -6.16

compound: CCCCCc1c(C)nc(SCC(=O)O)[nH]c1=O
units.symbol: %
measured.result: 1.23

compound: CCOC(=O)c1cnc(-n2nc(C)cc2C)nc1NC(C)c1ccccc1 (configuration not stated)
units.symbol: %
measured.result: -3.16

compound: Cc1nnc(NC2CCCCC2)[nH]c1=O
units.symbol: %
measured.result: -5.19
